I'd be grateful if you could share measured EC50 for these entries.
System: BJ
Experiment: cells
Assay type: functional, cell-based
Conditions: Homo sapiens
Calls of active or inactive are those of the source.

Problem: Look at this compound and give its reported EC50. O=C1/C(=C\c2cccnc2)SC(=S)N1C1CCS(=O)(=O)C1 (centres undefined)
Result: > 150 µM (inconclusive)

Problem: Look at this compound and give its reported EC50. `Cc1sc2ncnc(N/N=C/c3ccccc3O)c2c1C`
Result: 4.2 µM (active)

Problem: Look at this compound and give its reported EC50. `O=C(Nc1ccc(N2CCCC2)cc1)c1cc(Cl)ccc1Cl`
Result: > 150 µM (not active)

Problem: Look at this compound and give its reported EC50. `CCOC(=O)c1cnc(Nc2nc3ccccc3o2)nc1C`
Result: 17 µM (active)

----------
Target: Inhibitor of nuclear factor kappa-B kinase subunit epsilon (Homo sapiens, UniProt Q14164)
Sequence (Q14164 whole entry): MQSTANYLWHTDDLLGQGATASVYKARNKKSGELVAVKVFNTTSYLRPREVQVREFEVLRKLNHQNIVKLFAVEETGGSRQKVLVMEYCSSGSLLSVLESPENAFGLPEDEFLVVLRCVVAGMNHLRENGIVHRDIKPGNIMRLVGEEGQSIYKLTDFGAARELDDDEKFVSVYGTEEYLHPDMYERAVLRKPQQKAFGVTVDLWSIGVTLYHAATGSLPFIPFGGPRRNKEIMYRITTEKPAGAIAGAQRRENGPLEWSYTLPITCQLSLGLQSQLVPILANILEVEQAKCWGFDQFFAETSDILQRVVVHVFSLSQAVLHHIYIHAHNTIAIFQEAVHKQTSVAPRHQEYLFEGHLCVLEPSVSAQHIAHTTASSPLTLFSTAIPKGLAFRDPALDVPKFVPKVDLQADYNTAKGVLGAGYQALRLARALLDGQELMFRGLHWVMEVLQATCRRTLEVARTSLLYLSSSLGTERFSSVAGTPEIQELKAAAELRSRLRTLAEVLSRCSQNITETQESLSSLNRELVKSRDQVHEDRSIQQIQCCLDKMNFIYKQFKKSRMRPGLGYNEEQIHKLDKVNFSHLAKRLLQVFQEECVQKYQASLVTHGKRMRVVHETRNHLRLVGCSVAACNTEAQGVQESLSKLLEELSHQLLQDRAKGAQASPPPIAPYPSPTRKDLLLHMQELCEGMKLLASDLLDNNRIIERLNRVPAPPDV
Assay: Navigating the Kinome. Panel member name: IKBKE
Format: functional
Activity calls are given as the source filed them.
Could you please pick one outcome from this set? active, inactive

Problem: Lab log entry: `O=C(Nc1cccc(C(F)(F)F)n1)Nc1ccnc2cc(OC(F)F)ccc12` — outcome as called in the assay?
Result: inactive

Problem: Lab log entry: `O=C(Nc1cccc(C(F)(F)F)n1)Nc1ccnc2cc(Cl)ccc12` — outcome as called in the assay?
Result: inactive

Problem: Lab log entry: CCC1CC(NS(=O)(=O)C2CC2)CC1c1ncc2cnc3[nH]ccc3n12 (centres undefined) — outcome as called in the assay?
Result: inactive

Problem: Lab log entry: `O=c1[nH]c2cc(Br)cnc2[nH]1` — outcome as called in the assay?
Result: active

----------
Target: Leukocyte tyrosine kinase receptor (Homo sapiens, UniProt P29376)
Sequence (P29376 whole entry): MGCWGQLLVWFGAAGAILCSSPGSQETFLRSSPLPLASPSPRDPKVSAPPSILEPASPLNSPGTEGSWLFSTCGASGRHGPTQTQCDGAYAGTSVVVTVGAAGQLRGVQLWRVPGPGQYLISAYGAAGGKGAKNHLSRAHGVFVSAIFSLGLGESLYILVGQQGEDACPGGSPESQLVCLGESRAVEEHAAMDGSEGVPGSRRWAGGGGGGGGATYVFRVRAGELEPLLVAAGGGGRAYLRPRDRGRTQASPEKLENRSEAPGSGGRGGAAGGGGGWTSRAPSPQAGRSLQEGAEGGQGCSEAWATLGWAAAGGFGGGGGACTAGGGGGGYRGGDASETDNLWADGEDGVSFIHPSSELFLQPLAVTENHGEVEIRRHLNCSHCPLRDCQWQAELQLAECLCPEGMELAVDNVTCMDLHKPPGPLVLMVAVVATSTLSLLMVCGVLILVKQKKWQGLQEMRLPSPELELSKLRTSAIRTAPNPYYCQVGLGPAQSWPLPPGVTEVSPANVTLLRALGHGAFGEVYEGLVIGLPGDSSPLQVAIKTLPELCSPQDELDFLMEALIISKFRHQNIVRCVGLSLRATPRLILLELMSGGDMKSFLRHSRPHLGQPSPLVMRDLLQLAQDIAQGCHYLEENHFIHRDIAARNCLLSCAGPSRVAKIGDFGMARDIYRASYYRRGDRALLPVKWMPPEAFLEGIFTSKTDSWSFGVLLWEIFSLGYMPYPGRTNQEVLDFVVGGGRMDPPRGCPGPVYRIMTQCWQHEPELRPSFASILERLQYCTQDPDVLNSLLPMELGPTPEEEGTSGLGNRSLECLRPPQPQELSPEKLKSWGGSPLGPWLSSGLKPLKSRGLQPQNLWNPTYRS
Assay: Navigating the Kinome. Panel member name: LTK
Assay type: functional
Calls of active or inactive are those of the source.
Could you please pick one outcome from this set? active, inactive

Problem: Lab log entry: `O=C(Nc1cccc(C(F)(F)F)n1)Nc1ccnc2cc(OC(F)F)ccc12` — outcome as called in the assay?
Result: inactive

Problem: Lab log entry: `O=C(Nc1cccc(C(F)(F)F)n1)Nc1ccnc2cc(Cl)ccc12` — outcome as called in the assay?
Result: inactive

Problem: Lab log entry: `O=c1[nH]c2cc(Br)cnc2[nH]1` — outcome as called in the assay?
Result: active

Problem: Lab log entry: CCC1CC(NS(=O)(=O)C2CC2)CC1c1ncc2cnc3[nH]ccc3n12 (centres undefined) — outcome as called in the assay?
Result: active
